- assay_info: self-splicing fitness, log relative to wild type (ln ratio); higher = more splicing; Tetrahymena group I intron in knt gene, E. coli kanamycin selection, DiMSum; sequences stand for … in CUCUCU…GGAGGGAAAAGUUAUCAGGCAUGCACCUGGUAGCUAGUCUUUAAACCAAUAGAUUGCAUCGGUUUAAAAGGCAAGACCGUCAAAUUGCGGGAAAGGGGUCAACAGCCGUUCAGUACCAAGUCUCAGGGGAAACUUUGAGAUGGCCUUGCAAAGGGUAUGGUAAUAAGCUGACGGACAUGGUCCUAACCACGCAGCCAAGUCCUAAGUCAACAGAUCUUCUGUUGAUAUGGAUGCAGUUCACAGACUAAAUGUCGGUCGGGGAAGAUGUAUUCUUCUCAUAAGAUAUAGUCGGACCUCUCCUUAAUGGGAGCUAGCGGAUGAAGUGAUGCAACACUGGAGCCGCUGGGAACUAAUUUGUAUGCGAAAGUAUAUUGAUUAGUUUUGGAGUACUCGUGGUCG;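 note: selection with 25 µg/mL kanamycin versus none on LB agar overnight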
- assay_context: 30 °C
measured_parameter: self-splicing fitness (ln)
Just the number, please.

{"columns": ["record_sequence", "self-splicing fitness (ln)"],
 "data": [
  ["GCCCAGCAAUAUUACGACAG", -3.6],
  ["CAUAAGCAAUAUUACGAAGG", -1.56],
  ["ACAAAGCAAUAUUACGCCCA", -1.24]
]}

Any idea what its self-splicing fitness (ln) is? The sequence is AGGGAGCAAUAUUACGCUAG
-2.36

# repeat for CUCUAGCAAUAUUACGAGGC
-3.18

====

Quick list: self-splicing fitness (ln) per entry.
- assay_info: self-splicing fitness, log relative to wild type (ln ratio); higher = more splicing; Tetrahymena group I intron in knt gene, E. coli kanamycin selection, DiMSum; sequences stand for … in CUCUCU…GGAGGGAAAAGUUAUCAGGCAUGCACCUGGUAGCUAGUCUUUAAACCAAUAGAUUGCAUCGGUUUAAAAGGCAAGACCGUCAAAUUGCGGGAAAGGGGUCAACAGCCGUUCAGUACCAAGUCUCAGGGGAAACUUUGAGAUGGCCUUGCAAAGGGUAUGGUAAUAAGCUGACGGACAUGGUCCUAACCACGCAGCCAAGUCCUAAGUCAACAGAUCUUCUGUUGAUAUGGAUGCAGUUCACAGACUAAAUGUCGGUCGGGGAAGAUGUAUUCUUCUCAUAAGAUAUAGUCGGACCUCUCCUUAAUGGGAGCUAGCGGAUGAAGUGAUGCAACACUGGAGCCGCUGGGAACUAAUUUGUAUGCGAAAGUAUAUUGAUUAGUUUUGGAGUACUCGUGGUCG
- assay_context: 37 °C

Worked cases, answers included:
{"columns": ["record_sequence", "self-splicing fitness (ln)"],
 "data": [
  ["AGGGAGCAAUAUUACGAUGA", -2.7],
  ["AGAAAGCAAUAUUACGGAUG", -2.04]
]}

Any idea what its self-splicing fitness (ln) is? The sequence is AGAAAGCAAUAUUACGUUAG
-2.69

# repeat for CUUAAGCAAUAUUACGGAAA
-2.1

# repeat for UGUUAGCAAUAUUACGCUAG
-1.4

# repeat for GAAUAGCAAUAUUACGUUAA
-1.9

# repeat for GGCUAGCAAUAUUACGUUCG
-0.427

# repeat for UCAUAGCAAUAUUACGACUA
-1.78

# repeat for AGUAAGCAAUAUUACGACAU
-0.078

# repeat for AGCCAGCAAUAUUACGCCUG
-2.11

All values here come from the supplement of paper PMC7877785.
